# Tested on: K98450-129-R-PDC complex spheroid growth, percent test/control;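 note: luminescence used as a proxy for viable cell amount; spheroids exposed to agents for seven days before the viability readout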
# Assay: Anticancer human tumor K98450-129-R-PDC patient-derived colon adenocarcinoma cell line growth inhibition [RAS]
# Details: second compound 1 µM; first compound 0.003 µM; active compounds read low
# Description: RAS pathway inhibitors in Combinations in Complex Spheroids A high-throughput screen of multi-cell type tumor spheroids was designed to identify active combinations of RAS pathway inhibitors and targeted small molecules. Complex spheroids include a stromal component modeled by human endothelial cells (HUVEC) and fibroblasts modeled by human mesenchymal stem cells (MSCs). […] Compounds. […] If the clinical Cmax for an agent had not been determined, the highest concentration tested was 10 microM. […]
The following compounds are listed with their measured viability, T/C values.

| Compound | viability, T/C |
| --- | --- |
| CC1(C)CCC(Nc2ncc(C(F)(F)F)c(-c3c[nH]c4c(P(C)(C)=O)c(C#N)ccc34)n2)CN1 (centres undefined) + C=CC(=O)N1CCN(c2nc(OCC3CCCN3C)nc3c(F)c(-c4nc(N)cc(C)c4C(F)(F)F)c(Cl)cc23)C(C)C1 | 33.3% |
| CCc1c2c(nc3ccc(O)cc13)-c1cc3c(c(=O)n1C2)COC(=O)[C@]3(O)CC + C=CC(=O)N1CCN(c2nc(OCC3CCCN3C)nc3c(F)c(-c4nc(N)cc(C)c4C(F)(F)F)c(Cl)cc23)C(C)C1 | 30.3% |
| CCc1c2c(nc3ccc(O)cc13)-c1cc3c(c(=O)n1C2)COC(=O)[C@]3(O)CC + C#Cc1c(F)ccc2cc(O)cc(-c3ncc4c(N5CC6CCC(C5)N6)nc(OCC56CCCN5CC(F)C6)nc4c3F)c12 | 100% |
| CC1(C)CCC(Nc2ncc(C(F)(F)F)c(-c3c[nH]c4c(P(C)(C)=O)c(C#N)ccc34)n2)CN1 (centres undefined) + C#Cc1c(F)ccc2cc(O)cc(-c3ncc4c(N5CC6CCC(C5)N6)nc(OCC56CCCN5CC(F)C6)nc4c3F)c12 | 97.8% |
